Item-by-item account of full-length SMN2 transcripts, mean expression level, Lumbar
Test system: human SMN2-gene
test-method-notes: Full-length SMN2 transcript qPCR in tissues of adult SMA mice after intravenous peptide-PMO conjugate
Type: in vivo
assay-conditions: adult SMA mice; 2x15 mg/kg IV approx. 48 hours apart; tissue 7 days post final administration; normalised to saline treated controls; spinal cord
Marks after values point to notes of the source that are not given here.
readout-type: full-length SMN2 transcripts, mean expression level, Lumbar

- substance: "Ac-RXRRBRRXRQFLRXRBRXR-B [Peptide 2]"
  measurement: "1.48**"
- substance: "Ac-RXRRBRRQFLRBRXR-B [Peptide 5]"
  measurement: "1.25*"
- substance: "Ac-RXRRBRRFLRBRXR-B [Peptide 6]"
  measurement: "1.23*"
- substance: "Ac-RXRRBRRXRYQFLIRXRBRXR-B [Peptide 1]"
  measurement: "1.28***"

* * *

System: human SMN2-gene
test-method-notes: Full-length SMN2 transcript qPCR in tissues of adult SMA mice after intravenous peptide-PMO conjugate
Assay type: in vivo
assay-conditions: adult SMA mice; 2x15 mg/kg IV approx. 48 hours apart; tissue 7 days post final administration; normalised to saline treated controls; Central Nervous System
Marks after values point to notes of the source that are not given here.
readout-type: full-length SMN2 transcripts, mean expression level, Cerebellum

- substance: "Ac-RXRRBRRXRQFLRXRBRXR-B [Peptide 2]"
  measurement: "1.15*"
- substance: "Ac-RXRRBRRXRYQFLIRXRBRXR-B [Peptide 1]"
  measurement: "1.25*"
- substance: "Ac-RXRRBRR FS*RBRXR-B [Peptide 17]"
  measurement: "1.19*"
